- Target System: T1, dog iRhom2 full length wild type, T7-tagged (dog, UniProt Q00M95 1-827)
- T1 construct: whole, on cells; on MEF-DKO cells; also called Dog-iR2-FL-WT-T7
- T1 sequence: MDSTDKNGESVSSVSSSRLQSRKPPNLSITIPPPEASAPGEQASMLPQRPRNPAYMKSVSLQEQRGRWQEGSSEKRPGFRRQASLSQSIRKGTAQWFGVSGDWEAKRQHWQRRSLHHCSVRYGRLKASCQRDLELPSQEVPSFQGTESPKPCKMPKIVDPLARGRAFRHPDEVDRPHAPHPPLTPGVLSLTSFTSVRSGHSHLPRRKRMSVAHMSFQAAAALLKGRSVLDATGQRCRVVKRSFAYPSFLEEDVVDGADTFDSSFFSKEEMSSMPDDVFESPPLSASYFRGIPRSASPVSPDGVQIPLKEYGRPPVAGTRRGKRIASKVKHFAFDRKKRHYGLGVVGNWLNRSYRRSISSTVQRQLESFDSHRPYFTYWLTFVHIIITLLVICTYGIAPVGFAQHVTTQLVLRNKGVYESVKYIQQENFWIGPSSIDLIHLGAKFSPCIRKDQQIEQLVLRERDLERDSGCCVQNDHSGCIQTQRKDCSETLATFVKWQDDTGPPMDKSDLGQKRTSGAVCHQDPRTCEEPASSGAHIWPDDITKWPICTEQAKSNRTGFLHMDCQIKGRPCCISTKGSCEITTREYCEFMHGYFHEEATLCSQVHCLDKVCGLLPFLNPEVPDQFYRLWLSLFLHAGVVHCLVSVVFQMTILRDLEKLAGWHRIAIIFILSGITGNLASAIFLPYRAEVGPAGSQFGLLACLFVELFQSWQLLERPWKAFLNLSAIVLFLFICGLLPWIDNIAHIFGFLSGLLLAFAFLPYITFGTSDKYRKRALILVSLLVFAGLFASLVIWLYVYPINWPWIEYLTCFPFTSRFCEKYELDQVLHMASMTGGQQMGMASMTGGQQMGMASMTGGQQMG
- Test Method Notes: FACS, MEF-DKO cells; via representative antibody 16
- Procedure: In brief, immortalized MEF-DKO-EV control cells, MEF-DKO-rhesus-iR2-FL-WT-T7 cells, MEF-DKO-cyno-iR2-FL-WT-T7 cells, MEF-DKO-dog-iR2-FL-WT-T7 cells and MEF-DKO-rabbit-iR2-FL-WT-T7 cells, as well as their respective iRhom1 counterparts, were harvested with 10 mM EDTA in PBS, washed and resuspended in FACS buffer (PBS, 3% FBS, 0.05% sodium azide), and seeded in Nunc U-bottom 96-well plates (Thermo Fisher Scientific, USA) at approximately 3×10⁵ cells per well. […]
Property Name: binding result

antibody 34 (antibody, V domains shown, mouse IgG, kappa light chain; also called clone #34; purified antibody 34) VH: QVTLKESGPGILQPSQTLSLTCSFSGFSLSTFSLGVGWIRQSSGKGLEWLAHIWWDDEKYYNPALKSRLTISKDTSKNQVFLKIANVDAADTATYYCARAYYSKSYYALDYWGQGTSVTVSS VL: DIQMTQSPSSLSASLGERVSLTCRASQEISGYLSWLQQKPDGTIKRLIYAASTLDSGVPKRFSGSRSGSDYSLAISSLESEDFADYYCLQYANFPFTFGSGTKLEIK: binds
antibody 44 (antibody, V domains shown, mouse IgG, kappa light chain; also called clone #44; purified antibody 44) VH: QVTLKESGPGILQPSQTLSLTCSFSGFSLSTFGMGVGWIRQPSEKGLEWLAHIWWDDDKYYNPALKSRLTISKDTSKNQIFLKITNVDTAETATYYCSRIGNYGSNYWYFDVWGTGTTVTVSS VL: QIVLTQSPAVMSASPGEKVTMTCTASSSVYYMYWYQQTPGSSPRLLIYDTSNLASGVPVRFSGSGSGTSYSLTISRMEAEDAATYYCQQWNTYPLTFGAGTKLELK: binds
